Every entry's value here was drawn from patent US5866571A.

System: PDE V (cGMP-specific PDE V)
Assay: Inhibition of the phosphodiesterases in vitro: PDE V
Format: biochemical
Details: enzyme from porcine small intestine, porcine aorta and/or human blood platelets; 10^-6 mol/l nucleotide, pH 7.5, 30 minutes
measured property: IC50 (nM)

These recorded examples may help you get a feel for the data.
Record CCCOc1ccccc1-c1nc2c(ncn2C(CCc2ccccc2)C(C)O)c(=O)[nH]1 (stereo not drawn) , field IC50: 5000

# IC50 (compound: CCCCCCC(C(C)O)n1cnc2c(=O)[nH]c(-c3ccccc3OCCC)nc21 (stereo not drawn) ) is 100

Field IC50 (entry CCCOc1ccccc1-c1nc2c(ncn2C(CCCc2ccccc2)C(C)O)c(=O)[nH]1 (stereo not drawn) ) reads 2000

(I) CCCOc1ccccc1-c1nc2c(ncn2C(C)CCCc2ccccc2)c(=O)[nH]1 (stereo not drawn)
(II) CCCCCCC(CC)n1cnc2c(=O)[nH]c(-c3cc(S(=O)(=O)N4CCOCC4)ccc3OCCC)nc21 (stereo not drawn)
(III) CCCCCCC(C(C)NC(C)=O)n1cnc2c(=O)[nH]c(-c3ccccc3OCCC)nc21 (stereo not drawn)
Ask: Number of compounds to sort: 3. Sort criterion: IC50, ascending. Field: ranking. Enter the labels in the order requested.
Result: II, I, III
